- system-tested: T1, human complement factor D purified from serum (human, UniProt P00746 26-253)
- T1 construct: serum-purified (CompTech); also called hCFD-Comptech; CFD
- T1 sequence (P00746 26-253): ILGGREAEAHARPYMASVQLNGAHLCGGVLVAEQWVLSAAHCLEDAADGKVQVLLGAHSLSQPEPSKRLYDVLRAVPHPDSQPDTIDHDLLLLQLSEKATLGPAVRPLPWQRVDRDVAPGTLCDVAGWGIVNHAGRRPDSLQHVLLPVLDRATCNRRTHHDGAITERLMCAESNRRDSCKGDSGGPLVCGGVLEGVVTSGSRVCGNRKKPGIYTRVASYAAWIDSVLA
- test-summary: Biacore, protein A capture
observation-type: koff (s⁻¹)
Write the number in s⁻¹ without appending the unit.

Example entries and their recorded answers appear below.
54V59D heavy chain / 101V light chain (antibody, V domains shown, IgG) VH: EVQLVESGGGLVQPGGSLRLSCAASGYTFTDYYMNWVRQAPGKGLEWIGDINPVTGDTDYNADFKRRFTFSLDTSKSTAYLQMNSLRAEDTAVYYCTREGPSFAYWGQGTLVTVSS VL: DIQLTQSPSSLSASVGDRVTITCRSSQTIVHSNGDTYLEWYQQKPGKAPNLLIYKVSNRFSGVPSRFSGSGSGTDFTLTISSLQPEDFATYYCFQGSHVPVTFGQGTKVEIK	0.000213
KCD119 TAF heavy chain / KCD119 TAF light chain (antibody, V domains shown, humanized full IgG captured on protein A; also called TAF KCD119) VH: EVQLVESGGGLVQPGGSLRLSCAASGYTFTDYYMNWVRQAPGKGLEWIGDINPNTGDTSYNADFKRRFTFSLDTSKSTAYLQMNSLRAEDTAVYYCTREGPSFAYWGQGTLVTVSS VL: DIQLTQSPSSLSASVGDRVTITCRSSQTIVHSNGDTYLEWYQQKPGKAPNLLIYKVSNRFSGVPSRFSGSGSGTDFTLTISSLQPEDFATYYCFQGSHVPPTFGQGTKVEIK	0.00103
54V heavy chain / KCD119 TAF light chain (antibody, V domains shown, IgG; also called 54V/wt) VH: EVQLVESGGGLVQPGGSLRLSCAASGYTFTDYYMNWVRQAPGKGLEWIGDINPVTGDTSYNADFKRRFTFSLDTSKSTAYLQMNSLRAEDTAVYYCTREGPSFAYWGQGTLVTVSS VL: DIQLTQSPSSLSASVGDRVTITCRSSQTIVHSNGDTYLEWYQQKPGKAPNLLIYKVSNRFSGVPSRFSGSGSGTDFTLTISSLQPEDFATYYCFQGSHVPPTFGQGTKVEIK	0.000627

# return recorded koff for entry 54V59D heavy chain / KCD119 TAF light chain (antibody, V domains shown, IgG) VH: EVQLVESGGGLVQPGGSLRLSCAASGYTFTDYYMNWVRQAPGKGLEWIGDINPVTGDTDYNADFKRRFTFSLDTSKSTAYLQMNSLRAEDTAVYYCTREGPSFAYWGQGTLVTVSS VL: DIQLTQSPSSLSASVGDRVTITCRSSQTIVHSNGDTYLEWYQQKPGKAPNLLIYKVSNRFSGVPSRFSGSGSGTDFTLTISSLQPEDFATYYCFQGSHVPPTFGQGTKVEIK
0.000307

# return recorded koff for entry 54V heavy chain / 101V light chain (antibody, V domains shown, IgG) VH: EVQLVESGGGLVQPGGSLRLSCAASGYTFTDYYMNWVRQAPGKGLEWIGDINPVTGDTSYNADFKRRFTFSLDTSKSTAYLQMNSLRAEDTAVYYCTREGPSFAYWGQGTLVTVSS VL: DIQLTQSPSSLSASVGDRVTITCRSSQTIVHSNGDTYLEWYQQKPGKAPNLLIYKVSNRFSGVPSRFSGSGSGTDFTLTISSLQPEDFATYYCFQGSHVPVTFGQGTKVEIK
0.000463
